- measurement.target: Lysine hydroxylase
- protocol: Enzyme test: hydroxylation of underhydroxylated collagen, lysine hydroxylase inhibition
- Assay type: biochemical
- measurement.conditions: 50% inhibition of the enzyme reaction; Iron(II) ions, α-ketoglutarate and ascorbate
result.type: IC50

CC(=O)N[C@@H](CCCNC(=O)c1ccc(O)c(O)c1)C(=O)N1CCC[C@H]1C(=O)NCC(=O)O: 7 µM
CC(=O)N1CCC[C@H]1C(=O)N[C@@H](CCCNC(=O)c1ccc(O)c(O)c1)C(=O)NCC(=O)O [Ac-Pro-Orn(3,4-dihydroxybenzoyl)-Bly-OH]: 39 µM
CC(=O)N1CCC[C@H]1C(=O)N[C@@H](CCCNC(=O)Cc1ccc(O)c(O)c1)C(=O)NCC(=O)O: 70 µM

###

- measurement.target: Proline hydroxylase
- protocol: Enzyme test: hydroxylation of underhydroxylated collagen, proline hydroxylase inhibition
- measurement.conditions: 50% inhibition of the enzyme reaction; Iron(II) ions, α-ketoglutarate and ascorbate
// NB: equality with 40 µM counts as no (0); only IC50 strictly below is yes (1)

CC(=O)N[C@@H](CCCNC(=O)c1ccc(O)c(O)c1)C(=O)N1CCC[C@H]1C(=O)NCC(=O)O: no (0)
CC(=O)N1CCC[C@H]1C(=O)N[C@@H](CCCNC(=O)c1ccc(O)c(O)c1)C(=O)NCC(=O)O [Ac-Pro-Orn(3,4-dihydroxybenzoyl)-Bly-OH]: no (0)
CC(=O)N1CCC[C@H]1C(=O)N[C@@H](CCCNC(=O)Cc1ccc(O)c(O)c1)C(=O)NCC(=O)O: no (0)
CC(=O)N[C@@H](CCCNC(=O)Cc1ccc(O)c(O)c1)C(=O)N1CCC[C@H]1C(=O)NCC(=O)O: no (0)
CC(=O)N1CCC[C@H]1C(=O)N[C@@H](CCCNC(=O)c1cc(O)c(O)c(O)c1)C(=O)NCC(=O)O: yes (1)
CC(=O)N[C@@H](CCCNC(=O)c1cc(O)c(O)c(O)c1)C(=O)N1CCC[C@H]1C(=O)NCC(=O)O: yes (1)
CC(=O)N[C@@H](CCCNC(=O)c1cccc(O)c1O)C(=O)N1CCC[C@H]1C(=O)NCC(=O)O [Ac-Orn(2,3-dihydroxybenzoyl)-Pro-Gly-OH]: yes (1)

###

Documented pIC50 across a set of compounds
- measurement.target: Lysine hydroxylase
- protocol: Enzyme test: hydroxylation of underhydroxylated collagen, lysine hydroxylase inhibition
- measurement.conditions: 50% inhibition of the enzyme reaction; Iron(II) ions, α-ketoglutarate and ascorbate
pIC50: −log10 of the molar value.
result.type: pIC50

CC(=O)N[C@@H](CCCNC(=O)c1cccc(O)c1O)C(=O)N1CCC[C@H]1C(=O)NCC(=O)O [Ac-Orn(2,3-dihydroxybenzoyl)-Pro-Gly-OH]: 5.15
CC(=O)N1CCC[C@H]1C(=O)N[C@@H](CCCNC(=O)c1cc(O)c(O)c(O)c1)C(=O)NCC(=O)O: 4.59
CC(=O)N[C@@H](CCCNC(=O)c1cc(O)c(O)c(O)c1)C(=O)N1CCC[C@H]1C(=O)NCC(=O)O: 5.10
CC(=O)N[C@@H](CCCNC(=O)Cc1ccc(O)c(O)c1)C(=O)N1CCC[C@H]1C(=O)NCC(=O)O: 4.43
